Target: adenosine A2B receptor (Homo sapiens (Human))
Assay: Adenosine receptor activity assay (Table 1), A2B activity
Assay type: biochemical
Conditions: A2A activity to A2B activity (A2A/A2B)
Would you mind telling me the reported Ratio of each entry?
One number for each entry.

Answered examples (5):
{"columns": ["molecule", "observed"],
 "data": [
  ["C[C@H](Nc1nc(C(=O)NCc2cncc(C(F)(F)F)c2)c2sccc2n1)c1ccccn1 [Example Z200]", 1.81],
  ["O=C(c1nc(NCc2cncc(F)c2)nc2ccsc12)N1CC[C@H](F)C1 [Example Z99]", 37.02],
  ["COC[C@@H](Nc1nc(C(=O)NC[C@H](C)O)c2sccc2n1)c1cccnc1 [Example Z320]", 3.92],
  ["CC(=O)N[C@H]1CCN(C(=O)c2nc(N[C@@H](C)c3cncc(F)c3)nc3cc(C)sc23)C1 [Example Z383]", 55.83],
  ["C[C@H](Nc1nc(C(=O)N2CC[C@H](F)C2)c2sccc2n1)c1cccnc1 [Example Z9]", 2.55]
]}

The following molecules each have a reported value; give each one's Ratio.
1. C[C@H](Nc1nc(C(=O)N2CC[C@@H](O)C2)c2sc(C(F)(F)F)cc2n1)c1ccccn1 [Example Z349]
2. Cc1cc2nc(N[C@@H](C)c3cncc(F)c3)nc(C(=O)N3CCC3)c2s1 [Example Z276]
3. C[C@H](Nc1nc(C(=O)N2CCC2)c2sc(N)cc2n1)c1cccnc1 [Example Z203]
4. O=C(c1nc(NCc2cncc(F)c2)nc2ccsc12)N1CC(O)C1 [Example Z109]

Solution:
46.63
92.47
33.74
68.08

The following molecules each have a reported value; give each one's Ratio.
1. CO[C@H]1C[C@@H](NC(=O)c2nc(N[C@@H](C)c3cccnc3)nc3ccsc23)C1 [Example Z296]
2. CC(=O)N[C@H]1CCN(C(=O)c2nc(N[C@@H](C)c3ccccn3)nc3ccsc23)C1 [Example Z324]

Solution:
1: 1.07; 2: 28.39

###

Target: UniProt:P29275
Assay: Adenosine receptor activity assay (Table 1), A2B activity
Type: biochemical
Settings: read-out: Ave A2B cAMP IC50
Would you mind telling me the reported IC50 of each entry?

The following molecules each have a reported value; give each one's IC50.
1. C[C@H](Nc1nc(C(=O)N2CC[C@@H](O)C2)c2sc(C(F)(F)F)cc2n1)c1cncc(F)c1 [Example Z391]
2. NC(=O)c1cncc(CNc2nc(C(=O)N3CCCC3)c3sccc3n2)c1 [Example Z142]

Solution:
1: < 10 nM; 2: > 500 nM

The following molecules each have a reported value; give each one's IC50.
1. CO[C@H]1CCN(C(=O)c2nc(N[C@@H](C)c3cncc(Cl)c3)nc3ccsc23)C1 [Example Z254]
2. COc1ccc(CNC(=O)c2nc(NCc3ccc(OC)nc3)nc3ccsc23)cn1 [Example Z12]

Solution:
10 to 50 nM
> 500 nM

###

Target: adenosine A2B receptor (Homo sapiens (Human), UniProt P29275)
Sequence (P29275 whole entry): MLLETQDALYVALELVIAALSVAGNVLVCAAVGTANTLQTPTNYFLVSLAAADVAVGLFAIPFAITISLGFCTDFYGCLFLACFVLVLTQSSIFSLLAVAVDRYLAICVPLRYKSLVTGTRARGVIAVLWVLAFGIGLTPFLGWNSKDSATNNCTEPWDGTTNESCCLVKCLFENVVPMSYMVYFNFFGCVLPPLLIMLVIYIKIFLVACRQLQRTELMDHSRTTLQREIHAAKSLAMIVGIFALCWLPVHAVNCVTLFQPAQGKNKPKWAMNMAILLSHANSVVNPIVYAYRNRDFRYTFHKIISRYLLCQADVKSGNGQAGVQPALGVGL
Assay: Adenosine receptor activity assay (Table 1), A2B activity
Format: biochemical
Settings: read-out: Ave A2B cAMP IC50
pIC50: −log10 of the molar value.
measurement_label: pIC50

{"columns": ["molecule", "measurement_label", "observed"],
 "data": [
  ["O=C(c1nc(NC(CO)c2cccnc2)nc2ccsc12)N1CCCC1 (stereo not shown)", "pIC50", "7.30 to 8.00"],
  ["CC(=O)N[C@@H]1CCN(C(=O)c2nc(N[C@@H](C)c3cncc(F)c3)nc3cc(C)sc23)C1", "pIC50", "7.30 to 8.00"]
]}

The following molecules each have a reported value; give each one's pIC50.
1. Cc1cc2nc(N[C@@H](C)c3ccccn3)nc(C(=O)NC[C@H](C)O)c2s1
2. C[C@H](Nc1nc(C(=O)NCCc2ccc(N)cc2)c2sccc2n1)c1cncc(F)c1
3. Cc1cc2nc(N[C@@H](C)c3cncc(F)c3)nc(C(=O)N3CC(N(C)C)C3)c2s1
4. O=C(c1nc(NCc2cccnn2)nc2ccsc12)N1CCCC1
5. C[C@H](Nc1nc(C(=O)N2CC[C@H](O)C2)c2sc(N)cc2n1)c1cccnc1
6. O=C(c1nc(NCCc2ccc(O)cc2)nc2ccsc12)N1CCCC1
7. CO[C@@H]1CCN(C(=O)c2nc(N[C@@H](C)c3cccnc3)nc3ccsc23)C1

Solution:
7.30 to 8.00
7.00 to 7.30
7.30 to 8.00
6.30 to 7.00
7.30 to 8.00
6.30 to 7.00
7.30 to 8.00
